system-tested: T1, Human Id3: Histidine (human, UniProt Q02535 1-119 at identity 1.00))
T1 construct: Fusion protein made in E. coli from vector pGW07; also called h-Id3: His; Human Id3 (coated wells); not shown: His tag
T1 chain: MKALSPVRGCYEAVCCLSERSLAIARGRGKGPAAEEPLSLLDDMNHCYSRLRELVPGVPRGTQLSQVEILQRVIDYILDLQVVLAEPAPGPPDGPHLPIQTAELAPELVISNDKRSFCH
experiment-description: ELISA, Ab 0.100 µg/ml
observation-type: A450 (A450)
Reply with just the number (in A450).

Using the record for rabbit monoclonal anti-mouse/human Id3, clone #BCH-4/#16-1 (antibody, V domains shown, Rabbit IgG from a rabbit hybridoma; also called m/h Id3 MoAb 16-1) VH: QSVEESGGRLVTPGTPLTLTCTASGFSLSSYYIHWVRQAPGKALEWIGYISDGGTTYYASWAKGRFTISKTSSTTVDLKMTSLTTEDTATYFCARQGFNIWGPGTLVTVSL VL: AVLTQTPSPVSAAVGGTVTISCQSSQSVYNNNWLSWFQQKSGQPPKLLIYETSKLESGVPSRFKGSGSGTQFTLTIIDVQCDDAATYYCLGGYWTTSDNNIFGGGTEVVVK , report its A450. 1.99
